testDetails: Metabolic stability in mouse liver microsomes assessed as metabolic bioavailability at 0.1 uM preincubated for 10 mins followed by NADPH addition and measured upto 60 mins by LC-MS/MS analysis
Format: ADME, Microsome
conditions: time < 70 min
measuredParameter: Fh at 1 h, 0.1 µM (%)
Provide the reading as a plain figure in %.

In: Field request: Fh at 1 h, 0.1 µM | item: Oc1c(Br)cc(C(F)(F)F)cc1-c1csc(-c2[nH]c(Br)c(Br)c2Br)n1
Out: 43.3

---

testDetails: Metabolic stability in monkey liver microsomes assessed as metabolic bioavailability at 0.1 uM preincubated for 10 mins followed by NADPH addition and measured upto 60 mins by LC-MS/MS analysis
Format: ADME, Macaca mulatta, Microsome
conditions: rhesus monkey, time < 70 min
measuredParameter: Fh at 1 h, 0.1 µM (%)
Provide the reading as a plain figure in %.

In: Field request: Fh at 1 h, 0.1 µM | item: Oc1c(Br)cc(C(F)(F)F)cc1-c1csc(-c2[nH]c(Br)c(Br)c2Br)n1
Out: 36.9
